# measured on: human DGKζ (Homo sapiens, UniProt Q13574)
# Construct: TVMV protease cleavage site (C); Hexa-His (C); made in house; host or cells: Sf9 insect cells (baculovirus, Bac-to-Bac)
# Sequence (Q13574 with tags, fused parts or gaps isoform Q13574-4): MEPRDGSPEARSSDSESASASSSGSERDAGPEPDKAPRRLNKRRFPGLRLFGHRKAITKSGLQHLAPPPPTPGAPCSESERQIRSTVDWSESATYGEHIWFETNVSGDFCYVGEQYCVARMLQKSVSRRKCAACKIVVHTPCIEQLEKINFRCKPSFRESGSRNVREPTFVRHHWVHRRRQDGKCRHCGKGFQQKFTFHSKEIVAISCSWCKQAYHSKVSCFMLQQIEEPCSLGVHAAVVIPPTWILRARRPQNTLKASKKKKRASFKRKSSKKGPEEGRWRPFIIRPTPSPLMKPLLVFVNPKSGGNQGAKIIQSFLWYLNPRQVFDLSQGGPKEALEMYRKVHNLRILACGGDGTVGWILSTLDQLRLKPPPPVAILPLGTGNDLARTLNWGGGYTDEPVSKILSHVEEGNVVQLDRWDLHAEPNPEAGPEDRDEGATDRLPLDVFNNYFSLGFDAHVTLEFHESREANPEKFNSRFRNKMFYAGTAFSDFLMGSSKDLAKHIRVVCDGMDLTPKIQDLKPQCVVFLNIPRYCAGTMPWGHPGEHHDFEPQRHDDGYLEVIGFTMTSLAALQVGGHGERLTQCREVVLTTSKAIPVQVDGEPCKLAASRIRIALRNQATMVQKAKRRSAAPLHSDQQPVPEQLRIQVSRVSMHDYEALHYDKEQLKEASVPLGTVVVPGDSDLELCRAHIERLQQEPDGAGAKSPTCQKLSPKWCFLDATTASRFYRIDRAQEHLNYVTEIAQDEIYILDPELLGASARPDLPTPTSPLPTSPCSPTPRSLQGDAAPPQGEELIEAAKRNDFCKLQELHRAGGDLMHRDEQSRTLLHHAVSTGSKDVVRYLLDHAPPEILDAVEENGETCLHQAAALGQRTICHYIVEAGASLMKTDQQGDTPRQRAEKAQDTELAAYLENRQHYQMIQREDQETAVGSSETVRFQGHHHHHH
# procedure details: DGKζ LIPGLO assay (extruded liposome substrate), in vitro DGK inhibition
# Assay type: biochemical
# run parameters: DGKζ liposome (LIPGLO) assay; read-out: DGKz LIPGLO IC50
pIC50: −log10 of the molar value.
experimental readout: pIC50

Reference set, count: 2
C[C@@H]1CN(c2cc(=O)n(C)c3ccc(C#N)nc23)[C@@H](C)CN1C(c1ccc(F)cc1)c1cnn(C2CC2)c1 (single isomer, unassigned) [Example 725]
6.31
CC(c1c(F)cccc1F)N1CCN(c2c(C#N)c(=O)n(C)c3ccc(C#N)nc23)C[C@H]1C (single isomer, unassigned) [Example 950]
6.43

1: C[C@@H]1CN(c2c(C#N)c(=O)n(C)c3ccc(C#N)nc23)[C@@H](C)CN1C(c1ccc(F)cc1)c1cccc(C(F)(F)F)n1 (single isomer, unassigned) [Example 844]
2: CC(c1ccc(OC(F)(F)F)cc1)N1C[C@H](C)N(c2c(C#N)c(=O)n(C)c3ccc(C#N)nc23)C[C@H]1C (single isomer, unassigned) [Example 802]
// compare measured pIC50, left 1 , right 2 , return larger Could you answer with the label of the item you picked?
1
(1: 5.28, 2: 4.62)

----------
# measured on: human DGKα (Homo sapiens, UniProt P23743)
# Construct: TVMV protease cleavage site (C); Hexa-His (C); made in house; host or cells: Sf9 insect cells (baculovirus, Bac-to-Bac)
# Sequence (P23743 with tags, fused parts or gaps): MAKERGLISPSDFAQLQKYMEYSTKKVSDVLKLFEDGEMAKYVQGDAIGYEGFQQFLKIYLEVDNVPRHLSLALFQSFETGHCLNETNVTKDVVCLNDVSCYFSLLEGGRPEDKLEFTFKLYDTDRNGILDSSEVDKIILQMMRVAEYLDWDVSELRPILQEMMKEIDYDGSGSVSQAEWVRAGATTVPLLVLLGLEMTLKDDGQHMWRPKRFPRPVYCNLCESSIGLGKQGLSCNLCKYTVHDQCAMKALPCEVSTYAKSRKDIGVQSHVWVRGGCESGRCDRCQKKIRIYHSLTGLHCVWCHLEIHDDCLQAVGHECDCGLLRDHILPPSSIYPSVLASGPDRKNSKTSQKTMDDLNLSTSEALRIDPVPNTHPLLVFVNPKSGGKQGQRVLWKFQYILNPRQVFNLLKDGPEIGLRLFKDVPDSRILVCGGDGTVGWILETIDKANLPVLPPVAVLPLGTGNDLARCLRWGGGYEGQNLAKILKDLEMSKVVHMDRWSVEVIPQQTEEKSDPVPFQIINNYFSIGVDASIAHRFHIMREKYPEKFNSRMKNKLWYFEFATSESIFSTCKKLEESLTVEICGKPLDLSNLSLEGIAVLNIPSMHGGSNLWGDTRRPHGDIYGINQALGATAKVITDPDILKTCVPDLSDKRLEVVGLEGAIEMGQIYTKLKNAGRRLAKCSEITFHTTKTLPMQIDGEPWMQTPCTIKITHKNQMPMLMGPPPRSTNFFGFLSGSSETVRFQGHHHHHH
# procedure details: DGKα LIPGLO assay (extruded liposome substrate), in vitro DGK inhibition
# Type: biochemical
# run parameters: liposome (LIPGLO) assay; read-out: DGKa LIPGLO IC50
experimental readout: IC50 (µM)

CC(c1cccc(OC(F)(F)F)c1)N1C[C@H](C)N(c2cc(=O)n(C)c3ccc(C#N)nc23)C[C@H]1C (single isomer, unassigned) [Example 1267]
3.5

a: C[C@@H]1CN(c2cc(=O)n(C)c3ccc(C#N)nc23)[C@@H](C)CN1C(c1ccc(F)cc1)c1cncn1C (stereo partly drawn) [Example 705]
b: CC(c1c(F)cc(F)cc1F)N1C[C@H](C)N(c2cc(=O)n(C)c3ccc(C#N)nc23)C[C@H]1C (single isomer, unassigned) [Example 488]
c: Cc1ccc(C(c2cc(C)ccn2)N2C[C@H](C)N(c3cc(=O)n(C)c4ccc(C#N)nc34)C[C@H]2C)cc1 (single isomer, unassigned) [Example 461]
d: CC(c1cccc(C(F)(F)F)n1)N1C[C@H](C)N(c2cc(=O)n(C)c3ccc(C#N)nc23)C[C@H]1C (single isomer, unassigned) [Example 637]
e: Cn1c(=O)c(C#N)c(N2CCN(C(c3ccc(F)cc3)c3ccc(F)cc3)C(CF)C2)c2nc(Br)ccc21 (stereo not drawn)
Rank ascending by IC50. Please write the labels in the order that was asked for.
d, c, e, b, a
(d: 0.17 µM, c: 1.4 µM, e: 2.1 µM, b: 15 µM, a: 220 µM)

----------
# measured on: human DGKα (Homo sapiens, UniProt P23743)
# Construct: TVMV protease cleavage site (C); Hexa-His (C); made in house; host or cells: Sf9 insect cells (baculovirus, Bac-to-Bac)
# procedure details: DGKα LIPGLO assay (extruded liposome substrate), in vitro DGK inhibition
# Type: biochemical
# run parameters: liposome (LIPGLO) assay; read-out: DGKa LIPGLO IC50
pIC50: −log10 of the molar value.
experimental readout: pIC50

Below: 5 compounds and their reported pIC50.
C[C@@H]1CN(c2cc(=O)n(C)c3ccc(C#N)nc23)[C@@H](C)CN1C(c1ccc(F)cc1)c1c(F)cc(F)cc1F (single isomer, unassigned) [Example 692]
6.09
CC(c1csc(C(F)(F)F)n1)N1C[C@H](C)N(c2cc(=O)n(C)c3ccc(C#N)nc23)C[C@H]1C (single isomer, unassigned) [Example 1273]
6.74
C[C@@H]1CN(c2c(Br)c(=O)n(C)c3ccc(C#N)nc23)[C@@H](C)CN1C(c1ccc(F)cc1)c1ccc(F)cc1 [Example 19]
4.38
CC(c1ccc(F)cc1)N1C[C@H](C)N(c2cc(=O)n(C)c3ccc(C#N)nc23)C[C@H]1C (single isomer, unassigned) [Example 309]
6.14
Cc1ccc(C(c2ccc(Cl)cc2)N2C[C@H](C)N(c3cc(=O)n(C)c4ccc(C#N)nc34)C[C@H]2C)nc1 (single isomer, unassigned) [Example 365]
6.57

I: CC(c1ccc(-n2cncn2)cc1)N1C[C@H](C)N(c2cc(=O)n(C)c3ccc(C#N)nc23)C[C@H]1C (single isomer, unassigned) [Example 1239]
II: C[C@@H]1CN(c2cc(=O)n(C)c3ccc(C#N)nc23)[C@@H](C)CN1C(c1ccc(F)cc1)c1ccnc(C(C)(C)C)n1 (single isomer, unassigned) [Example 408]
III: CC[C@@H]1CN(c2cc(=O)n(C)c3ccc(C#N)nc23)[C@@H](C)CN1C(C)c1ccc(OC)cc1 (single isomer, unassigned) [Example 1351]
IV: C[C@@H]1CN(c2cc(=O)n(C)c3ccc(C#N)nc23)[C@@H](C)CN1Cc1c(F)cccc1C#N [Example 269]
V: C[C@@H]1CN(c2cc(=O)n(C)c3ccc(C#N)nc23)[C@@H](C)CN1Cc1ccc(C(F)(F)F)nc1Cl [Example 281]
Order field: pIC50 | Direction: descending (largest first) Field: ranking. Enter the labels in the order requested.
III, V, II, I, IV

a: C[C@@H]1CN(c2c(Cl)c(=O)n(C)c3ccc(C#N)nc23)CCN1C(c1ccc(Cl)cc1)c1ccc(Cl)cc1 [Example 105]
b: COCC1CN(c2cc(=O)n(C)c3ccc(C#N)nc23)CCN1C(c1ccc(F)cc1)c1ccc(F)cc1 (single isomer, unassigned) [Example 92]
c: Cc1ccc(C(c2ccc(C)cc2)N2C[C@@H](C)N(c3cc(=O)n(C)c4ccc(C#N)nc34)C[C@@H]2CO)cc1 [Example 1173]
Sort (3 compounds) by pIC50: min first. // format: requested-order list of labels
b, c, a
(b: 4.02, c: 5.00, a: 5.85)

A: C[C@@H]1CN(c2cc(=O)n(C)c3ccc(C#N)nc23)[C@@H](C)CN1Cc1cccc2c1OCCN2C(=O)OC(C)(C)C [Example 630]
B: CCc1ccccc1C(c1ccc(F)cc1)N1C[C@H](C)N(c2cc(=O)n(C)c3ccc(OC)nc23)C[C@H]1C (single isomer, unassigned) [Example 235]
C: C[C@@H]1CN(c2cc(=O)n(C)c3ccc(C#N)nc23)[C@@H](C)CN1Cc1coc(-c2cccs2)n1 [Example 1434]
Descending sort on pIC50 required. // format: requested-order list of labels
A, C, B
(A: 6.41, C: 5.68, B: 4.09)

A: COC[C@@H]1CN(c2cc(=O)n(C)c3ccc(C#N)nc23)[C@@H](C)CN1C(c1ccc(F)cc1)c1ccc(C(F)(F)F)cn1 (stereo partly drawn) [Example 1402]
B: CC(c1ccc(OC(F)F)cn1)N1C[C@H](C)N(c2cc(=O)n(C)c3ccc(C#N)nc23)C[C@H]1C (single isomer, unassigned) [Example 1224]
C: Cc1ccc(C(c2cccc(F)c2)N2C[C@H](C)N(c3cc(=O)n(C)c4ccc(C#N)nc34)C[C@H]2C)cn1 (stereo partly drawn) [Example 417]
Order these by pIC50, descending, and give the full ranking. Your answer should be the labels, listed in the requested order.
B, A, C
(B: 7.39, A: 6.52, C: 4.70)

a: Cc1ccc(C(c2cccc(F)n2)N2C[C@H](C)N(c3cc(=O)n(C)c4ccc(C#N)nc34)C[C@H]2C)cc1 (single isomer, unassigned) [Example 478]
b: COCc1ccc(C(C)N2C[C@H](C)N(c3cc(=O)n(C)c4ccc(C#N)nc34)C[C@H]2C)cc1 (stereo partly drawn) [Example 1265]
Lower value for measured pIC50? Options: a , b // return label of chosen record
a

a: CC(c1cccc(C(F)F)n1)N1C[C@H](C)N(c2cc(=O)n(C)c3ccc(C#N)nc23)C[C@H]1C (stereo partly drawn) [Example 1223]
b: C[C@@H]1CN(c2cc(=O)n(C)c3ccc(C#N)nc23)[C@@H](C)CN1C(c1ccc(F)cc1)c1nccn1C (stereo partly drawn) [Example 713]
Response body: label of entry with the larger pIC50; valid values a , b . # answer = label of selected item
a
(a: 7.80, b: 5.18)
